# System: SK-HEP1
# Assay name: Antiproliferative activity against human SK-HEP1 cells assessed as cell viability at 80 uM incubated for 72 hrs by CCK-8 assay
# Type: functional
# Recorded conditions: read-out: Activity
The label is yes (1) for viability at 80 µM below 60% and no (0) for viability at 80 µM equal to or exceeding 60%.

Find out if reported viability at 80 µM for Cn1cc(/C(=N/O)C(=O)Nc2ccc(C(F)(F)F)cc2)c2ccccc21 is less than 60% yes (1)

Find out if reported viability at 80 µM for Cc1ccccc1NC(=O)/C(=N\O)c1cn(C)c2ccccc12 is less than 60% no (0)

Find out if reported viability at 80 µM for Cn1cc(/C(=N\O)C(=O)Nc2ccc(C(F)(F)F)cc2)c2ccccc21 is less than 60% yes (1)

Find out if reported viability at 80 µM for Cn1cc(/C(=N/O)C(=O)Nc2cccc(Cl)c2)c2ccccc21 is less than 60% no (0)

Find out if reported viability at 80 µM for Cc1ccccc1NC(=O)/C(=N/O)c1cn(C)c2ccccc12 is less than 60% no (0)

Find out if reported viability at 80 µM for Cn1cc(/C(=N\O)C(=O)Nc2ccc(Cl)cc2)c2ccccc21 is less than 60% yes (1)

Find out if reported viability at 80 µM for Cn1cc(/C(=N\O)C(=O)Nc2ccc(Br)cc2)c2ccccc21 is less than 60% yes (1)

* * *

# Tested on: 5-8F
# Assay name: Antiproliferative activity against human 5-8F cells assessed as reduction in cell viability incubated for 72 hrs by CCK-8 assay
# Assay type: functional, cell-based
Measurement name: pIC50
The meaning of pIC50 here: minus log10 of the concentration in molar units.

// pIC50 lookup, compound = COc1cccc2c1C(=O)c1c(O)c3c(c(O)c1C2=O)C[C@@](O)(C(=O)CO)C[C@@H]3O[C@H]1C[C@H](N)[C@H](O)[C@H](C)O1 , result: 6.47

// pIC50 lookup, compound = Cn1cc(/C(=N\O)C(=O)Nc2ccc(Cl)cc2)c2ccccc21 , result: 5.03

* * *

Provide the recorded viability at 80 µM for the entries that follow.
# System: 5-8F
# Assay name: Antiproliferative activity against human 5-8F cells assessed as cell viability at 80 uM incubated for 72 hrs by CCK-8 assay
# Assay type: functional
# Recorded conditions: read-out: Activity
Number only, in %; omit the unit.

// viability at 80 µM lookup, compound = Cn1cc(/C(=N/O)C(=O)Nc2ccc(Br)cc2)c2ccccc21 , result: 31.5

// viability at 80 µM lookup, compound = Cn1cc(/C(=N/O)C(=O)Nc2ccc(Br)c(F)c2)c2ccccc21 , result: 75

// viability at 80 µM lookup, compound = Cn1cc(/C(=N/O)C(=O)Nc2ccc(Cl)cc2)c2ccccc21 , result: 47.2

// viability at 80 µM lookup, compound = Cc1ccccc1NC(=O)/C(=N/O)c1cn(C)c2ccccc12 , result: 95.3

// viability at 80 µM lookup, compound = Cn1cc(/C(=N/O)C(=O)Nc2cccc(Cl)c2)c2ccccc21 , result: 78

// viability at 80 µM lookup, compound = Cc1ccccc1NC(=O)/C(=N\O)c1cn(C)c2ccccc12 , result: 92.8

// viability at 80 µM lookup, compound = Cn1cc(/C(=N\O)C(=O)Nc2ccc(Cl)cc2)c2ccccc21 , result: 7.8

// viability at 80 µM lookup, compound = Cn1cc(/C(=N/O)C(=O)Nc2cccc(F)c2)c2ccccc21 , result: 73.1

// viability at 80 µM lookup, compound = Cn1cc(/C(=N\O)C(=O)Nc2cccc(F)c2)c2ccccc21 , result: 59.3
